experimental_system: HLA-DRB1*01:01 (Homo sapiens, UniProt P01903+P01911, A100R/D57E/F55L/F60I/F76Y/I96L/L162R/M171V/P40L/Q125E/R42F/V115G/Y59C)
Construct: EBV transformed homozygous cell lines were used as sources of MHC molecules; endogenous in cells; host or cells: EBV transformed homozygous cell lines
experimental_protocol: HLA class II peptide binding, inhibition of radiolabeled peptide binding to purified MHC
condition_label: read-out: DRB1*01:01 binding capacity, WT peptide (IC50 nM)
Please respond with reported IC50 for every item in the list.
Give bare numbers, in nM.

The following molecules each have a reported value; give each one's IC50.
1. CC(C)C[C@H](NC(=O)[C@H](CO)NC(=O)[C@H](Cc1ccccc1)NC(=O)[C@H](CC(=O)O)NC(=O)[C@@H](NC(=O)[C@H](CO)NC(=O)[C@H](CC(=O)O)NC(=O)[C@H](CCC(N)=O)NC(=O)[C@H](CC(C)C)NC(=O)[C@H](CC(C)C)NC(=O)[C@H](CCCNC(=N)N)NC(=O)[C@@H](NC(=O)CN)C(C)C)C(C)C)C(=O)N[C@@H](C)C(=O)N[C@@H](CC(=O)O)C(=O)O
2. CC(C)C[C@H](NC(=O)[C@@H](N)CO)C(=O)N[C@@H](Cc1ccc(O)cc1)C(=O)N[C@@H](C)C(=O)N[C@@H](CO)C(=O)N[C@@H](CO)C(=O)N1CCC[C@H]1C(=O)NCC(=O)NCC(=O)N[C@H](C(=O)N[C@@H](Cc1ccc(O)cc1)C(=O)N[C@@H](C)C(=O)N[C@H](C(=O)N[C@@H](CCCNC(=N)N)C(=O)N[C@@H](CO)C(=O)O)[C@@H](C)O)C(C)C

(A)
358
75
